Source: patent US5191079A

Structures can show the parent of a compound that is named as a salt.
result_type: MIC (µg/mL)
Kindly answer with a numeric value in µg/mL, unit omitted.

Lookup: Please tell me: MIC of COCC1CN(c2c(F)cc3c(=O)c(C(=O)O)c4scc5n4c3c2N(C)C5)CCN1C (stereo not drawn) [Compound (J), hydrochloride] , system Enterobacter cloacae 963?
Found: 0.39

Lookup: Please tell me: MIC of CN1Cc2csc3c(C(=O)O)c(=O)c4cc(F)c(N5CCN(C)C(CO)C5)c1c4n23 (stereo not drawn) [Compound (I), hydrochloride] , system Enterobacter cloacae 963?
Found: 0.2

Lookup: Please tell me: MIC of CN1Cc2csc3c(C(=O)O)c(=O)c4cc(F)c(N5CCOC(CCl)C5)c1c4n23 (stereo not drawn) [Compound (D)] , system Enterobacter cloacae 963?
Found: 0.39

====

- System: clinically isolated Staphylococcus epidermidis
- test_protocol: In vitro antibacterial activity against clinical isolates, Experiment 2
- Assay type: cell-based
- measurement_conditions: Staphylococcus epidermidis; 25 clinical strains S. epidermidis; 50% of strains; read-out: MIC50
Structures can show the parent of a compound that is named as a salt.
Please respond with reported MIC50 for every item in the list.
Kindly answer with a numeric value in µg/mL, unit omitted.

Lookup: Which MIC50 value is on record for COCC1CN(c2c(F)cc3c(=O)c(C(=O)O)c4scc5n4c3c2N(C)C5)CCO1 (stereo not drawn) [Compound (E)] ?
Found: 0.05

Lookup: Which MIC50 value is on record for CN1Cc2csc3c(C(=O)O)c(=O)c4cc(F)c(N5CCC(=O)CC5)c1c4n23 ?
Found: 0.013

Lookup: Which MIC50 value is on record for CN1CCN(c2c(F)cc3c(=O)c(C(=O)O)c4scc5n4c3c2OC5)CC1 [Compound (Y), hydrochloride, reference compound] ?
Found: 0.1

Lookup: Which MIC50 value is on record for CN1Cc2csc3c(C(=O)O)c(=O)c4cc(F)c(N5CCN(C)C(CO)C5)c1c4n23 (stereo not drawn) [Compound (I), hydrochloride] ?
Found: 0.1

Lookup: Which MIC50 value is on record for CN1Cc2csc3c(C(=O)O)c(=O)c4cc(F)c(N5CCC(O)CC5)c1c4n23 ?
Found: 0.013

Lookup: Which MIC50 value is on record for COC[C@H]1CN(c2c(F)cc3c(=O)c(C(=O)O)c4scc5n4c3c2N(C)C5)CCO1 ?
Found: 0.05

Lookup: Which MIC50 value is on record for COCC1CN(c2c(F)cc3c(=O)c(C(=O)O)c4scc5n4c3c2N(C)C5)CCN1C (stereo not drawn) [Compound (J), hydrochloride] ?
Found: 0.1

Lookup: Which MIC50 value is on record for CC1CN(c2c(F)cc3c(=O)c(C(=O)O)c4scc5n4c3c2N(C)C5)CCO1 (stereo not drawn) ?
Found: 0.013

Lookup: Which MIC50 value is on record for CN1Cc2csc3c(C(=O)O)c(=O)c4cc(F)c(N5CCOC(CCl)C5)c1c4n23 (stereo not drawn) ?
Found: 0.013

Lookup: Which MIC50 value is on record for CN1Cc2csc3c(C(=O)O)c(=O)c4cc(F)c(N5CCOC(CF)C5)c1c4n23 (stereo not drawn) ?
Found: 0.013

Lookup: Which MIC50 value is on record for CC1COc2c(N3CCN(C)CC3)c(F)cc3c(=O)c(C(=O)O)cn1c23 (stereo not drawn) [Compound (X), reference compound] ?
Found: 0.78

Lookup: Which MIC50 value is on record for COC[C@@H]1CN(c2c(F)cc3c(=O)c(C(=O)O)c4scc5n4c3c2N(C)C5)CCO1 ?
Found: 0.05

Lookup: Which MIC50 value is on record for CN1Cc2csc3c(C(=O)O)c(=O)c4cc(F)c(N5CCC(N(C)C)CC5)c1c4n23 ?
Found: 0.05

Lookup: Which MIC50 value is on record for CN1Cc2csc3c(C(=O)O)c(=O)c4cc(F)c(N5CCN(C)C(CF)C5)c1c4n23 (stereo not drawn) [Compound (K), hydrochloride] ?
Found: 0.05

Lookup: Which MIC50 value is on record for CN1Cc2csc3c(C(=O)O)c(=O)c4cc(F)c(N5CCN6CCOC[C@H]6C5)c1c4n23 ?
Found: 0.05
